- test.name: chemical genetic growth profiling, strain panel (AID 1159580);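 note: tested at 20 µM; growth read once vehicle control cultures reached saturation at 30 °C; 1 = growth at the plate median or of vehicle wells; lower values mean less growth of the strain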
- condition.info: S. cerevisiae deletion strains, growth OD, locus YBL105C, strain PKC1, active compounds read low
Screen size: about 5,500 compounds; about 2,000 (36%) were called active. Inconclusive results (about 18%) are left out. Some of the results follow.
recorded.metric: normalized growth
One number for each entry.

compound: O=C(c1cc2c(s1)-c1ccccc1CC2)N1CCN(Cc2ccccc2)CC1
normalized growth: 1
//
compound: O=C(NNC(=S)Nc1ccc(Cl)cc1)c1ncc(C(F)(F)F)cc1Cl
normalized growth: 0.99
//
compound: N#C/C(=N/Nc1cccc(C(F)(F)F)c1)C(=O)c1csc(-c2cccnc2)n1
normalized growth: 0.958

Dear reader, for each entry below, please note its normalized growth.
1. COc1ccc(C2CC(c3ccc(C)cc3C)=NN2C(C)=O)cc1 (stereo unspecified)
2. O=C(Nc1cc2c(s1)-c1cc(Cl)ccc1SC2)Oc1ccccc1
3. CC(C)(C)c1ccc(C(=O)NNC(=S)Nc2ccc(Cl)cc2)cc1

1: 0.993; 2: 1.01; 3: 0.978
